Please go through the items and note down their LD50.
assay: Acute toxicity (LD50) in mouse; conditions: in vivo, oral administration

1) COc1ccc(/C=C/CCCCOc2cccc(OCCCCC(=O)N(C)C)c2CCC(=O)O)cc1	3900 mg/kg

Look up LD50 for this compound: COc1ccc(/C=C/CCCCOc2cccc(OCCCCC(=O)O)c2CCC(=O)O)cc1
2200 mg/kg

----------
system: Human PMNLs; assay: Inhibition of human PMNLs aggregation (LTB4-induced); format: cell-based; settings: PMNL, LTB4 10^-8 M solution, 3 min preincubation at 37° C., pH 7.4
Please go through the items and note down their pIC50.
Answers are plain numbers, as −log10 of the molar value.

1. COc1ccc(/C=C/CCCCOc2cccc(NC(=O)CCCC(=O)N(C)C)c2CCC(=O)O)cc1 [Example 32]	5.27
2. COc1ccc(/C=C/CCCCOc2cccc(OCCCCN3CCCC3=O)c2CCC(=O)O)cc1 [30 (a)]	5.96
3. COc1ccc(/C=C/CCCCOc2ccc(NC(=O)CCCC(=O)Nc3nccs3)cc2CCC(=O)O)cc1 [1 (o)]	5.52
4. COc1ccc(/C=C/CCCCOc2ccc(NC(=O)c3cccc(C(=O)O)c3)cc2CCC(=O)O)cc1 [2 (b)]	5.13

// next entry
Look up pIC50 for this molecule: COc1ccc(/C=C/CCCCOc2ccc(C(O)CCCC(=O)N(C)C)cc2CCC(=O)O)cc1 (centres unmarked) [Example 20]
5.70
